Consider the following compounds and their measured pEC50 readings.
# Test system: CEM cells HIV-1 protection, formazan growth assay
# assay: NCI AIDS Antiviral Assay
pEC50: −log10 of the molar value.

{"compound": "OCCN(CCO)c1ccc2ccc(N(CCO)CCO)nc2n1", "study-target": "CEM cells HIV-1 protection, formazan growth assay", "pEC50": "< 3.70"}
{"compound": "COC(=O)c1c2c(cc3c1CC1(Cc4cc5c(c(C)c4C1)CCC5)C3)CCC2 (stereo unspecified)", "study-target": "CEM cells HIV-1 protection, formazan growth assay", "pEC50": "< 3.70"}
{"compound": "Cc1c(-c2ccccc2)nn2cc(-c3ccccc3)nnc12", "study-target": "CEM cells HIV-1 protection, formazan growth assay", "pEC50": "< 3.70"}
{"compound": "COC(=O)c1ccc(CSc2ccccc2)cc1", "study-target": "CEM cells HIV-1 protection, formazan growth assay", "pEC50": "< 4.55"}
{"compound": "C#CCOC(=O)C(=[N+]=[N-])C(=O)CC(C)C", "study-target": "CEM cells HIV-1 protection, formazan growth assay", "pEC50": "< 3.70"}

Continue with the compound presented below.
Query: Recall the recorded pEC50 for Cc1nn(C)pc1P(C)(=S)n1nc(N(C)C)np1 (stereo unspecified) with CEM cells HIV-1 protection, formazan growth assay and state it.
Result: < 3.11

====

# Test system: CEM cells HIV-1 protection, formazan growth assay
# assay: NCI AIDS Antiviral Assay
Active and inactive are the calls of the source.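 The calls were made as follows: active = compounds giving half or more protection of infected cells from virus-caused growth loss, again on retest; inactive = the rest.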
property-measured: outcome

Examples from the recorded data:
{"compound": "COC(=O)C(Cc1c[nH]c2ccccc12)NC(=O)C(Cc1c[nH]c2ccccc12)NC(=O)OCc1ccccc1 (configuration not stated)", "property-measured": "outcome", "readout-value": "inactive"}
{"compound": "CCOC(=O)C(CC1COc2ccccc2O1)C(=O)OCC (configuration not stated)", "property-measured": "outcome", "readout-value": "inactive"}
{"compound": "COC(=O)c1ccc(Cl)cc1NC(=O)C1CCCCC1", "property-measured": "outcome", "readout-value": "inactive"}
{"compound": "O=C(O)[C@@H](NS(=O)(=O)c1ccc(F)cc1)c1ccccc1", "property-measured": "outcome", "readout-value": "inactive"}

Query: Sample C/C(=C\C(=O)OCCCCCCCC(=O)NC1CCCNC1=O)C[C@@H]1OC[C@H](C/C=C/[C@@H](C)[C@H](C)O)[C@@H](O)[C@H]1O (some centres not stated) — what was its outcome?
Result: inactive

Query: Requested field: outcome. Item: COc1ccc(-c2nc(Nc3ccccc3)sc2Cc2sc(Nc3ccccc3)nc2-c2ccc(OC)cc2)cc1
Result: inactive

Query: Given the entry NC(N)=NS(=O)(=O)c1ccc(NC(=O)c2cccn3c(=O)c4ccccc4nc23)cc1 , report its measured outcome.
Result: inactive

====

# System: CEM cells HIV-1 protection, formazan growth assay
# assay: NCI AIDS Antiviral Assay
# run-parameters: measured here: growth of uninfected CEM cells
property-measured: IC50 (µM)
Respond numerically; units are µM and should not be typed.

As a guide, the following entries are already answered.
{"compound": "COc1cccc2c(=O)c3c(n(C)c12)OC(C(C)C)C3 (stereo not drawn)", "IC50 / µM": 126}
{"compound": "COC(=O)c1c(C)cccc1CC1Cc2c(C)cccc2C1=O (stereo not drawn)", "IC50 / µM": 41.7}

Lab note: next compound to report on.
Query: Looking for the measured IC50 of CCOC(=O)c1cnc(SCc2ccc(Cl)c(Cl)c2)nc1N1CC1C (stereo not drawn) , can you help?
Result: 6.46

====

Here the recorded IC50 is given for each entry.
# System: CEM cells HIV-1 protection, formazan growth assay
# assay: NCI AIDS Antiviral Assay
# run-parameters: measured here: growth of uninfected CEM cells
Write the answer as a number in µM, unit excluded.

Example entries begin here.
{"molecule": "C=CCC1C(=O)C(C(=O)OC)N2CCc3c([nH]c4ccccc34)C12 (stereo unspecified)", "IC50, µM": 138}
{"molecule": "NC(N)=NS(=O)(=O)c1ccc(NC(=O)c2cccc3c(NNc4ccc(C(=O)O)cc4)c4ccccc4nc23)cc1", "IC50, µM": 33.9}
{"molecule": "NC(=O)C(N/N=C(/C(=O)c1ccccc1)c1ccccc1)c1ccccc1 (stereo unspecified)", "IC50, µM": 44.7}

Query: So what does the record say about IC50 for CC(=O)Nc1ccc2[nH]c(C(=O)N3CC(CCl)c4c3cc([N+](=O)[O-])c3ccccc43)cc2c1 (stereo unspecified) ?
Result: 1.7

Query: IC50 for C=C1C(=O)O[C@H]2[C@H](OC(C)=O)[C@@H](C)CCC/C(C)=C/CC[C@@]3(C)O[C@@H]3C[C@@H]12 ?
Result: 5.62

====

# Tested on: CEM cells HIV-1 protection, formazan growth assay
# assay: NCI AIDS Antiviral Assay;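 active = compounds giving half or more protection of infected cells from virus-caused growth loss, again on retest; inactive = the rest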
# Description: The ability of compounds to protect human CEM cells from HIV-1 infection is measured as a screen for new compounds capable of inhibiting the HIV virus. Five concentrations of drug were tested on uninfected and infected cells and cell growth was measured using a soluble formazan assay. […] Compounds that provided at least 50% protection were retested. Compounds that provided at least 50% protection on retest were listed as moderately active. […]
Parameter call: string, one of T = active, F = inactive

{"molecule": "CC1(C)Cc2c(oc3ncnc(N)c23)CS1", "study-target": "CEM cells HIV-1 protection, formazan growth assay", "class-label": "F"}
{"molecule": "CC(C)(C)n1c(=O)[nH]n(C2NN=Cc3cccc4cccc2c34)c1=O (centres undefined)", "study-target": "CEM cells HIV-1 protection, formazan growth assay", "class-label": "F"}

Query: // outcome(item) with item = CN1Cc2ccccc2S(=O)(=O)n2cccc2C1=O
Result: F

Query: Could you check what this test reported for N/C(CSCCSC/C(N)=N/O)=N\O ?
Result: F

Query: Check the results log: what was the call for C=CCC1C(=O)C(C(=O)OC)N2CCc3c([nH]c4ccccc34)C12 (centres undefined) ?
Result: F

Query: Lab log entry: CN1CN(c2ccccc2)C2(CCN(Cc3csc4ccccc34)CC2)C1=O — outcome as called in the assay?
Result: F

Query: GET /call?item= CCOC(=O)Cc1csc(/N=C\c2c(O)c3ccccc3oc2=O)n1 returns the recorded outcome of this test.
Result: F

Query: Test call, this molecule: COc1ccc(/C=C2\C=Cc3ccccc32)cc1
Result: F

Query: Give the logged outcome of this assay for the following molecule: COc1cc(C(=O)CC2(O)C(=O)Nc3c(Cl)cc(Cl)cc32)ccc1O (centres undefined)
Result: F

Query: Outcome? Cc1cc2cccc(Cl)c2nc1C(=O)c1ccccc1
Result: F

Query: Dear all, I need the recorded test outcome for O=C1Cc2c([nH]c3c(Cl)cccc23)-c2ccccc2N1 , thank you.
Result: F

Query: Record lookup: outcome of this test for COc1cc(COC(=O)N2CCCCC2C(=O)O)c([N+](=O)[O-])cc1OC (centres undefined) ?
Result: F

Query: Hi, do you know how Cc1cn([C@H]2C[C@@H]3[C@@H](COC(CCCC[Se]c4ccccc4)N3O)O2)c(=O)[nH]c1=O (some centres undefined) came out in this test?
Result: T

Query: Dear colleague, could you share the recorded outcome for Cc1cc(C)nc(NS(=O)(=O)c2ccc(NNc3c4ccccc4nc4c(C(=O)Nc5ccc(S(=O)(=O)Nc6cc(C)on6)cc5)cccc34)cc2)n1 when you have a moment?
Result: F

====

# System: CEM cells HIV-1 protection, formazan growth assay
# assay: NCI AIDS Antiviral Assay
# run-parameters: measured here: growth of uninfected CEM cells
# Protocol: The ability of compounds to protect human CEM cells from HIV-1 infection is measured as a screen for new compounds capable of inhibiting the HIV virus. Five concentrations of drug were tested on uninfected and infected cells and cell growth was measured using a soluble formazan assay. […] Compounds that provided at least 50% protection were retested. Compounds that provided at least 50% protection on retest were listed as moderately active. […]
pIC50: −log10 of the molar value.
property-measured: pIC50

{"compound": "O=C1CC(CC(O)C2CCCCC2O)CC(=O)N1 (stereo not given)", "property-measured": "pIC50", "readout-value": "< 3.70"}
{"compound": "Cn1nc(-c2ccccc2)c2c(/C=C/c3ccc(F)cc3)onc2c1=O", "property-measured": "pIC50", "readout-value": "< 4.41"}
{"compound": "c1ccc2c(c1)cc1n2CCc2c-1[nH]c1ccccc21", "property-measured": "pIC50", "readout-value": "< 3.70"}

Query: pIC50 for CCS(=O)(=O)CCn1cnc2c1c(=O)n(C)c(=O)n2C ?
Result: < 3.70

Query: Look up pIC50 for this compound: C[C@@H](c1ccccc1)N(CC#N)[C@H]1CCC[C@]1(O)/C=C/c1ccc2c(c1)OCO2
Result: < 4.30

====

# System: CEM cells HIV-1 protection, formazan growth assay
# assay: NCI AIDS Antiviral Assay
pEC50: −log10 of the molar value.
pEC50 values by entry

Below, each entry is followed by its recorded pEC50 result.
{"compound": "CCN(CC)c1ccc(N=Nc2ccc(-c3nc4cccnc4s3)cc2)cc1", "pEC50": "< 5.29"}
{"compound": "CC(=O)Nc1ccc2[nH]c(C(=O)N3CC(CCl)c4c3cc([N+](=O)[O-])c3ccccc43)cc2c1 (stereo not given)", "pEC50": "< 5.70"}
{"compound": "[N-]=[N+]=C(C(=O)OCC#CCOC(=O)C(=[N+]=[N-])S(=O)(=O)c1ccccc1)S(=O)(=O)c1ccccc1", "pEC50": "< 3.70"}
{"compound": "CC(=O)Nc1c(C#N)c2n(c1C(=O)Nc1ccc(Cl)cc1)CCC2", "pEC50": "< 3.70"}
{"compound": "CC1(C)C2C=CC1C(=O)CC2 (stereo not given)", "pEC50": "< 3.41"}
{"compound": "O=c1cc(-c2ccccc2)oc2c(O)c(O)cc(O)c12", "pEC50": "< 3.73"}

Query: pEC50 lookup needed for Cc1ccc(N(C(=O)CC(=O)NN)C(=O)c2ccccc2Cl)cc1 , thanks.
Result: < 3.57

Query: Endpoint output: pEC50 of CCOC(=O)c1c(N2CCCC2)[nH]c(=O)c(C(c2cccs2)c2c(O)c(C(=O)OCC)c(N3CCCC3)[nH]c2=O)c1O . Value?
Result: < 3.70

Query: # pEC50 lookup, item COc1cc(C2SC(N)=Nc3c2c(C)nn3C(=O)Cc2ccccc2)cc(OC)c1OC (stereo not given)
Result: 4.31

Query: So what's the measured pEC50 for this one? CCOC(=O)CCC1(C(=O)OC)CCCC1=O (stereo not given)
Result: < 2.99

Query: Can you share its pEC50? I mean this compound: C/C=C1/CN2CCc3c4n(c5ccccc35)[C@@H](CO)C1CC42 (stereo not given in full)
Result: < 4.21

Query: // query pEC50 value for entry C[C@@]12C[C@@H](c3ccccc3O1)N1CCCCSC1=N2
Result: < 3.70

Query: Query (compound): Cc1ccc(C2=Nc3ccccc3NC(=O)C2)cc1 ; field requested: pEC50
Result: 4.69

Query: I am curious: what pEC50 value has been reported for COC(=O)CCC(C)C1CCC2C3CCC4CC5CCC4C3(CO5)C(=O)C(Br)C12C (stereo not given) ?
Result: < 4.97

Query: Name the recorded pEC50 for C=CCC1(C)CCCN(Cc2ccccc2)C1=O (stereo not given) .
Result: < 3.70
